assayProtocol: Retention time of the compound in 50 to 100% ACN/Water/0.1%TFA by RP-HPLC analysis
Type: physicochemical
conditionDetails: buffer
Task for the reader: assign each of the following compounds its reported Retention_time.
Expressed in min, but write only the number.

Item: O=C(O)/C(Cc1ccccc1)=N/Nc1nc(-c2ccc(Cl)c(Cl)c2)cs1 | Retention_time: 8.7

Item: O=C(O)/C(Cc1ccccc1[N+](=O)[O-])=N/Nc1nc(-c2ccc(Cl)c(Cl)c2)cs1 | Retention_time: 8.68

Item: O=C(O)/C(Cc1ccc(Cl)cc1)=N\Nc1nc(-c2ccc(Cl)c(Cl)c2)cs1 | Retention_time: 10.09

Item: O=C(O)/C(Cc1ccc(Cl)c([N+](=O)[O-])c1)=N\Nc1nc(-c2ccc(Cl)c(Cl)c2)cs1 | Retention_time: 9.449

Item: O=C(O)/C(Cc1ccc([N+](=O)[O-])cc1)=N\Nc1nc(-c2ccc(Cl)c(Cl)c2)cs1 | Retention_time: 8.01
